- Tested on: Streptococcus sp.
- Measurement description: In vitro antibacterial evaluation: minimum inhibitory concentration (MIC), broth dilution method
- Type: cell-based
- Condition set: strain GC 4565
Metric: MIC Streptococcus pneumoniae (GC 4565)

# annotated cases, reported MIC Streptococcus pneumoniae (GC 4565) shown
Please report the recorded MIC Streptococcus pneumoniae (GC 4565) for Cc1ccc(Oc2ccc(C3OCC4OC(OC5C(CO)OC(Oc6ccc(CC7NC(=O)C(C(C)c8ccccc8)NC(=O)CNC(=O)C(CO)NC(=O)C(C(O)C8CNC(=N)N8C8OC(CO)C(O)C(O)C8O)NC(=O)C(C(O)C8CNC(=N)N8)NC7=O)cc6)C(O)C5O)C(O)C(O)C4O3)cc2)cc1 (centres unmarked) [Example 174] . <0.06 µg/mL

Please report the recorded MIC Streptococcus pneumoniae (GC 4565) for COc1cc(C2OCC3OC(OC4C(CO)OC(Oc5ccc(CC6NC(=O)C(C(C)c7ccccc7)NC(=O)CNC(=O)C(CO)NC(=O)C(C(O)C7CNC(=N)N7C7OC(CO)C(O)C(O)C7O)NC(=O)C(C(O)C7CNC(=N)N7)NC6=O)cc5)C(O)C4O)C(O)C(O)C3O2)ccc1[N+](=O)[O-] (centres unmarked) [Example 153] . <0.06 µg/mL

Count: 3. Required value per item: MIC Streptococcus pneumoniae (GC 4565).
1. CC(c1ccccc1)C1NC(=O)CNC(=O)C(CO)NC(=O)C(C(O)C2CN(Cc3ccc(C(C)(C)C)cc3)C(=N)N2C2OC(CO)C(O)C(O)C2O)NC(=O)C(C(O)C2CNC(=N)N2)NC(=O)C(Cc2ccc(OC3OC(CO)C(OC4OC5COC6(OC5C(O)C4O)C4CC5CC(C4)CC6C5)C(O)C3O)cc2)NC1=O (centres unmarked) [Example 77]
2. CC(c1ccccc1)C1NC(=O)CNC(=O)C(CO)NC(=O)C(C(O)C2CNC(=N)N2C2OC(CO)C(O)C(O)C2O)NC(=O)C(C(O)C2CNC(=N)N2)NC(=O)C(Cc2ccc(OC3OC(CO)C(OC4OC5COC(c6ccc(C=Cc7ccccc7)cc6)OC5C(O)C4O)C(O)C3O)cc2)NC1=O (centres unmarked) [Example 172]
3. CC(c1ccccc1)C1NC(=O)CNC(=O)C(CO)NC(=O)C(C(O)C2CNC(=N)N2C2OC(CO)C(O)C(O)C2O)NC(=O)C(C(O)C2CNC(=N)N2)NC(=O)C(Cc2ccc(OC3OC(CO)C(OC4OC5COC(c6cc7c(cc6Cl)OCO7)OC5C(O)C4O)C(O)C3O)cc2)NC1=O (centres unmarked) [Example 158]

2 to 4 µg/mL
<0.06 µg/mL
<0.06 µg/mL
